# System: JFH-1 HCVcc-Luc
# TEST_NAME: microbe, parasite or virus in culture
# Type: cell-based, Hepatitis C virus
# MEASUREMENT_SETUP: Hepatitis C virus, Huh-7.5.1, read-out: EC50, inhibition of HCV infection
Reported values of EC50 for individual entries
A number alone suffices; assume nM.

Sample answers from the record:
- MOLECULE: "COc1ccc([C@@]23Oc4cc(OC)cc(OC)c4[C@]2(O)c2nc(-c4ccc(C(F)(F)F)cc4)[nH]c(=O)c2[C@H]3c2ccccc2)cc1 (racemic) [12o]"
  EXPERIMENTAL_TARGET: "JFH-1 HCVcc-Luc"
  UNIT_LABEL: "nM"
  NUMERIC_READOUT: 240
- MOLECULE: "COc1ccc([C@@]23Oc4cc(OC)cc(OC)c4[C@]2(OC)c2nc(-c4ccccc4)n(C)c(=O)c2[C@H]3c2ccccc2)cc1 [12ai]"
  EXPERIMENTAL_TARGET: "JFH-1 HCVcc-Luc"
  UNIT_LABEL: "nM"
  NUMERIC_READOUT: 9200
- MOLECULE: "COc1ccc([C@@]23Oc4cc(OC)cc(OC)c4[C@]2(O)c2nc(C4CCCCC4)[nH]c(=O)c2[C@H]3c2ccccc2)cc1 [12e]"
  EXPERIMENTAL_TARGET: "JFH-1 HCVcc-Luc"
  UNIT_LABEL: "nM"
  NUMERIC_READOUT: 2500
- MOLECULE: "COc1ccc([C@@]23Oc4cc(OC)cc(OC)c4[C@]2(O)c2nc(-c4ccccc4)[nH]c(=O)c2[C@H]3c2ccccc2)cc1 [12a]"
  EXPERIMENTAL_TARGET: "JFH-1 HCVcc-Luc"
  UNIT_LABEL: "nM"
  NUMERIC_READOUT: 420
- MOLECULE: "COc1ccc([C@@]23Oc4cc(OC)cc(OC)c4[C@]2(O)c2nc4n(c(=O)c2[C@H]3c2ccccc2)CCC4)cc1 [compound 6, Aglaroxin C, reference compound]"
  EXPERIMENTAL_TARGET: "JFH-1 HCVcc-Luc"
  UNIT_LABEL: "nM"
  NUMERIC_READOUT: 1300

Query: Given the molecule COc1ccc([C@@]23Oc4cc(OC)cc(OC)c4[C@]2(O)c2nc(-c4ccccc4)n(C)c(=O)c2[C@H]3c2ccccc2)cc1 [12ae] , what is its reported EC50?
Response: 200

---

Documented CC50 across a set of molecules
# TEST_NAME: Cytotoxicity, CellTiter-Glo Cell Viability Luminescent Assay
# Type: cell-based, human
# MEASUREMENT_SETUP: human; Huh7.5.1 cells, 3 h treatment, viability after 72 h; concentration giving 50% cell death
Give your result in µM as a bare value.

- MOLECULE: "COc1ccc([C@@]23Oc4cc(OC)cc(OC)c4[C@]2(O)c2nc(-c4ccccc4)n(C)c(=O)c2[C@H]3c2ccccc2)cc1 [12ae]"
  UNIT_LABEL: "µM"
  CC50: 7.3
- MOLECULE: "COc1ccc([C@@]23Oc4cc(OC)cc(OC)c4[C@]2(O)c2nc4n(c(=O)c2[C@H]3c2ccccc2)CCC4)cc1 [compound 6, Aglaroxin C, reference compound]"
  UNIT_LABEL: "µM"
  CC50: 12
- MOLECULE: "COc1ccc([C@@]23Oc4cc(OC)cc(OC)c4[C@]2(O)c2nc(-c4ccc(C(F)(F)F)cc4)[nH]c(=O)c2[C@H]3c2ccccc2)cc1 (racemic) [12o]"
  UNIT_LABEL: "µM"
  CC50: 10

Now let's try a different one.
Query: State the recorded CC50 for this entry: COc1ccc([C@@]23Oc4cc(OC)cc(OC)c4[C@]2(O)c2nc(-c4ccccc4)[nH]c(=O)c2[C@H]3c2ccccc2)cc1 [12a]
Response: 8.1
